As a worked illustration, we turn to pKd data collected for Cyclin-dependent kinase 2 (Homo sapiens, UniProt P24941).
Numbers only, as −log10 of the molar value.

Solved entries (count: 2):
Sample Smiles: COC(=O)[C@H](Cc1ccc(O)cc1)NC(=O)c1cc(C(=O)O)c2cc(-c3cccc(C(F)(F)F)c3)ccc2n1
pKd: 7.30
--
Sample Smiles: COC(=O)[C@H](Cc1ccc(O)cc1)NC(=O)c1cc(C(=O)O)c2cc(-c3cccs3)ccc2n1
pKd: 6.00

Could you now look at the following molecule, please?
// molecule COC(=O)[C@H](Cc1ccc(O)cc1)NC(=O)c1cc(C(=O)O)c2cc(CCc3ccc(Cl)cc3)ccc2n1 , assay Cyclin-dependent kinase 2 (Homo sapiens, UniProt P24941), pKd value: 7.26

* * *

# Assay Target: Cyclin-dependent kinase 2 (Homo sapiens, UniProt P24941)
Property Name: pKd
Give bare numbers, as −log10 of the molar value.

Solved entries (count: 2):
Sample Smiles: COC[C@H](Cc1ccc(O)cc1)NC(=O)c1cc(C(=O)O)c2cc(/C=C/c3ccc(Cl)cc3)ccc2n1
Assay Target: Cyclin-dependent kinase 2 (Homo sapiens, UniProt P24941)
pKd: 7.60
--
Sample Smiles: COC(=O)[C@H](Cc1ccc(O)cc1)NC(=O)c1cc(C(=O)O)c2cc(-c3cccc(C(F)(F)F)c3)ccc2n1
Assay Target: Cyclin-dependent kinase 2 (Homo sapiens, UniProt P24941)
pKd: 7.40

Quick note, pKd for CNC(=O)[C@H](Cc1ccc(O)cc1)NC(=O)c1cc(C(=O)O)c2cc(/C=C/c3ccc(Cl)cc3)ccc2n1 landed at 6.52

* * *

As a worked illustration, we turn to Kd data collected for Cyclin-dependent kinase 2 (Homo sapiens, UniProt P24941).

Solved entries (count: 2):
Sample Smiles: O=C(NCCc1ccc(O)cc1)c1cc(C(=O)O)c2cc(-c3cccs3)ccc2n1
Kd: > 40 µM
//
Sample Smiles: COC(=O)[C@H](Cc1cccc(O)c1)NC(=O)c1cc(C(=O)O)c2cc(-c3cccc(C(F)(F)F)c3)ccc2n1
Kd: > 40 µM

Could you now look at the following compound, please?
Quick note, Kd for COC(=O)[C@H](Cc1ccc(O)cc1)NC(=O)c1cc(CO)c2cc(-c3cccc(C(F)(F)F)c3)ccc2n1 landed at > 40 µM

* * *

# Assay Target: Cyclin-dependent kinase 2 (Homo sapiens, UniProt P24941)
Property Name: Ki

Solved entries (count: 3):
Sample Smiles: CNC(=O)[C@H](Cc1ccc(O)cc1)NC(=O)c1cc(C(=O)O)c2cc(/C=C/c3ccc(Cl)cc3)ccc2n1
Ki: 100 nM
--
Sample Smiles: COC(=O)[C@H](Cc1ccc(O)cc1)NC(=O)c1cc(C(=O)O)c2cc(-c3cccc(C(F)(F)F)c3)ccc2n1
Ki: < 100 nM
--
Sample Smiles: COC(=O)[C@H](Cc1ccc(O)cc1)NC(=O)c1cc(C(=O)O)c2cc(/C=C/c3ccc(Cl)cc3)ccc2n1
Ki: < 100 nM

Quick note, Ki for COC(=O)[C@H](Cc1ccc(O)cc1)NC(=O)c1cc(C(=O)NS(C)(=O)=O)c2cc(-c3cccs3)ccc2n1 landed at > 40000 nM

* * *

pKd: −log10 of the molar value.
As a worked illustration, we turn to pKd data collected for Cyclin-dependent kinase 2 (Homo sapiens).

Solved entries (count: 2):
Sample Smiles: COC(=O)[C@H](Cc1ccc(O)cc1)NC(=O)c1cc(C(N)=O)c2cc(-c3cccs3)ccc2n1
pKd: < 4.40
//
Sample Smiles: COC(=O)[C@H](Cc1ccc(O)cc1)NC(=O)c1cc(C(=O)NS(C)(=O)=O)c2cc(-c3cccs3)ccc2n1
pKd: < 4.40

Quick note, pKd for O=C(N[C@@H](Cc1ccc(O)cc1)C(=O)O)c1cc(C(=O)O)c2cc(-c3cccc(C(F)(F)F)c3)ccc2n1 landed at < 5.00

All values here come from ChEMBL document CHEMBL3098110.
